Every entry's value here was drawn from PubChem BioAssay (NCI).

experiment: NCI Yeast Anticancer Drug Screen. Data for the cln2 rad14 strain (AID 165);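 further: 0% = growth equal to vehicle treated cultures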; details: S. cerevisiae cln2 rad14 strain, at 5.0 µM (retest, dose inferred, filed as 0.5), hits give high values
About 79,000 compounds went through this panel and 15% of them were active in at least one assay; those are over-represented in the sample as a whole.
ASSAY_METRIC: growth inhibition (%)
Field format: number, assumed %, no unit text.

// known answers, use as guide
| COMPOUND | growth inhibition [%] |
| --- | --- |
| NC1=NNC2(C(N)=N1)c1ccccc1-c1ccccc12 | 3 |
| O=C(O)C1CC(c2ccccc2)=NN1c1ccccc1 (configuration not stated) | -15 |
| CCCCCCCCCCCCCCCCOP(=O)(O)OCC(N)C(=O)O (configuration not stated) | 6 |
| c1ccc2c(OCC3CO3)cccc2c1 (configuration not stated) | 3 |
| CCCCCCSc1ncnc2[nH]ncc12 | -5 |
| OCc1ccccc1Cc1ccccc1 | 5 |
| CCc1ccc2c(c1)N(CC(C)CN(C)C)c1ccccc1S2 (configuration not stated) | -24 |
| O=C(CSC(=S)N1CCCCC1)Nc1nc2c(s1)CCCC2 | 11 |

-- ask // lookup growth inhibition for `C[C@@](O)(/C=C/[C@H]1CC=CC(=O)O1)[C@@H](C[C@@H](O)\C=C/C=C\C=C\CO)OP(=O)(O)O`
-- reply 5

-- ask Now this one: `COc1oc(C(=O)NC2CCCCC2)c(-c2ccc(Cl)cc2)c1S(=O)(=O)c1ccccc1`
-- reply 15

-- ask Now this one: CN(C)C=NC1CCC(C(C)(C)C)CC1 (configuration not stated)
-- reply 17

-- ask Now this one: N=C1N=Nc2nc(C3(c4nc5n(c4O)C(=N)N=N5)Cc4ccccc4C3=O)c(O)n21 (configuration not stated)
-- reply 13

====

test: NCI Yeast Anticancer Drug Screen. Data for the sgs1 strain (AID 173);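 further: 0% = growth of vehicle-only control cultures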; details: S. cerevisiae sgs1 mutant, at 100.0 µM, hits give high values
About 79,000 compounds went through this panel and 15% of them were active in at least one assay; those are over-represented in the sample as a whole.
# key: entry, value: growth inhibition
Field format: number, assumed %, no unit text.

| COMPOUND | UNITS_TEXT | growth inhibition |
| --- | --- | --- |
| O=c1[nH]c(-c2ccccc2)nc2c1sc1nc3ccccc3n12 | % | -42 |
| CC(C)=NOC(=O)Nc1ccc(Cl)cc1 | % | 84 |
| Nc1cc(N)c(N=Nc2cccc3c(S(=O)(=O)O)cccc23)cc1N=Nc1cc([N+](=O)[O-])ccc1O | % | 59 |
| c1ccc(-c2cnc3ccccc3c2)cc1 | % | 99 |
| CCOc1c(N=Nc2ccccc2OC)c(C)nn1C(=S)S | % | 86 |

-- ask // lookup growth inhibition for Cc1nc2c(Br)cc(Br)cc2c(=O)n1-c1ccccc1NC1OCC(O)C(O)C1O (configuration not stated)
-- reply 88

-- ask Now this one: Cc1cccc(C(C)(C)C)c1NC(=O)C(C#N)C1=C(Cl)C(=O)c2ccccc2C1=O (configuration not stated)
-- reply 97

-- ask Now this one: `NC(=S)NC(=S)Nc1ccccc1`
-- reply 95

-- ask Now this one: `COc1ccc(/C=C2\NC(=S)N(/C=C3\C(=O)Oc4ccccc4C3=O)C2=O)cc1`
-- reply 35
